Cited source for all entries: ChEMBL document CHEMBL5532672

pIC50 for assorted compounds
- TGT: Potassium voltage-gated channel subfamily B member 1 (Homo sapiens, UniProt Q14721)
- Sequence (Q14721 whole entry): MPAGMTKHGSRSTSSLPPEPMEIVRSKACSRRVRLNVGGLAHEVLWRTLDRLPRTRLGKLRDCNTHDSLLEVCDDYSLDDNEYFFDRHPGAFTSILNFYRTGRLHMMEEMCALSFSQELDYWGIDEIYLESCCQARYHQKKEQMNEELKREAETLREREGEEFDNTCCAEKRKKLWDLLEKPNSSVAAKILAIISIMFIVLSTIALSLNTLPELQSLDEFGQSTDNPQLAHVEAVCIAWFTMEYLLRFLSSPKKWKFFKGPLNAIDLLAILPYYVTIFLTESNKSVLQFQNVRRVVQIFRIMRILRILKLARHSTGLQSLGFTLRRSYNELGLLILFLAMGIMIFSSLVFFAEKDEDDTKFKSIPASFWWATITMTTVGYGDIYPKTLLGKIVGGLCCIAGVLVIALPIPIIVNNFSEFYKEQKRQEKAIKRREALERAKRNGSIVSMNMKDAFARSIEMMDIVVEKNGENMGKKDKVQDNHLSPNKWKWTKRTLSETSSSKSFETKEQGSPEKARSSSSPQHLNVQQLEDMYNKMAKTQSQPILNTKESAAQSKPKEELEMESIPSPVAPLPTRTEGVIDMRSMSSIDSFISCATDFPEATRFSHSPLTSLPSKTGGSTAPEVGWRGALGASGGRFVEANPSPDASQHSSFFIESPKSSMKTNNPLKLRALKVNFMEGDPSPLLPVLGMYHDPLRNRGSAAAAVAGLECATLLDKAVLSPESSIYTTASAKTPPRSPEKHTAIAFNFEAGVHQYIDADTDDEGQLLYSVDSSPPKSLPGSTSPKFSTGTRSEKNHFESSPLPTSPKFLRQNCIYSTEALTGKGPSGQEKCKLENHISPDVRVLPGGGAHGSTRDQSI
- ASSAY COMMENT: Inhibition of human KV2.1 stably expressed in HEK293 cells by whole cell patch-clamp assay
pIC50: −log10 of the molar value.

Reference set, count: 2
CCOc1ccc(NC(=O)C(C)C)cc1C(=O)NC(C)c1ccnc(NC)n1 (stereo not drawn) : < 6.00
CCOc1ccc(NC(=O)C(C)C)cc1C(=O)NCc1cccc(Br)c1 : ~6.00

Continue with the compound presented below.
Report measured pIC50 on Potassium voltage-gated channel subfamily B member 1 (Homo sapiens, UniProt Q14721); entry: CCOc1ccc(NC(=O)C(F)(F)F)cc1C(=O)NC(C)c1cccc(-c2nccs2)c1 (stereo not drawn) < 5.00
